target: S1P4 (Homo sapiens); test: […]GTPγS binding assay, CHO-K1 membranes
Sequence (O95977 whole entry): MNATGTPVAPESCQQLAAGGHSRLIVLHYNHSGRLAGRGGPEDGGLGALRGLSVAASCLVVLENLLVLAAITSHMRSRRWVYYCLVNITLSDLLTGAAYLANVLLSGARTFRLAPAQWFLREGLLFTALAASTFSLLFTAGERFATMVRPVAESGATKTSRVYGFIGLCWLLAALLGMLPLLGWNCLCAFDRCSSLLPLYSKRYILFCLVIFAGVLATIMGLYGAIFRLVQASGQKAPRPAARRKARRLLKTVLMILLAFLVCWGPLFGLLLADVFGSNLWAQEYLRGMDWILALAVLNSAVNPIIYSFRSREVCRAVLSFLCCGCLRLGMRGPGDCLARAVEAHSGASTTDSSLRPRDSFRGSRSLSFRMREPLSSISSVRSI
attribute-measured: EC50 (nM)
Hi! Could you send only the number? It should be in nM, unit omitted.

Q: Look at this molecule and give its reported EC50. CCCCCCCCCCCCC/C=C/[C@@H](O)[C@@H](N)COP(=O)(O)O [S1P, Sphingosine-1-phosphate]
A: 355
